Entries with reported IC50 on human C5a receptor (C5aR) (Homo sapiens (Human))
Sequence (P21730 whole entry): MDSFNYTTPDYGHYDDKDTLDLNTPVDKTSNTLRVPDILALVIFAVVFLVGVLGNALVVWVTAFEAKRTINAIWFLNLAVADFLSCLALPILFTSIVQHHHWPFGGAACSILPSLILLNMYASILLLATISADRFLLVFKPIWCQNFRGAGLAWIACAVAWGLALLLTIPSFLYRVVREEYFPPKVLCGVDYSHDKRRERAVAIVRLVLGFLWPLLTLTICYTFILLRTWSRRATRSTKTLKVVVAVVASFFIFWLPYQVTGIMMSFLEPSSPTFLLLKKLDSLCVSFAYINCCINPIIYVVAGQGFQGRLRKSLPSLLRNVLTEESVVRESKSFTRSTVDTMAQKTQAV

Compound: Cc1cccc(F)c1C(=O)N1[C@@H]2CCC[C@@H]2C[C@H](C(=O)Nc2ccc3c(cnn3Cc3ccccn3)c2)[C@@H]1c1ccc(NC2CCOCC2)cc1 [Compound 92]
IC50: 2000 to 5000 nM
--
Compound: Cc1ccc(NC(=O)[C@H]2CCCN(S(=O)(=O)c3c(C)nn(C)c3C)[C@H]2c2ccc(NC3CCCC3)cc2)cc1C(F)(F)F [Compound 38]
IC50: 2000 to 5000 nM
--
Compound: Cc1cccc(F)c1C(=O)N1C2CCCC2CC(C(=O)Nc2ccc3c(c2)CCN(C(=O)OC(C)(C)C)C3)C1c1ccc(NC2CCCC2)cc1 (stereo not drawn) [Compound 202]
IC50: > 5000 nM
--
Compound: Cc1ccc(C)c(S(=O)(=O)N2CCC[C@H](C(=O)Nc3ccc(C)c(C(F)(F)F)c3)[C@@H]2c2ccc(NC3CCCC3)cc2)c1 [Compound 10]
IC50: 500 to 2000 nM
--
Compound: Cc1cccc(F)c1C(=O)N1[C@@H]2CCC[C@@H]2C[C@H](C(=O)Nc2ccc3ncsc3c2)[C@@H]1c1ccc(NC2CCCC2)cc1 (racemic) [Compound 69]
IC50: 50 to 500 nM
--
Compound: Cc1ccc(NC(=O)C2C[C@@H]3CCC[C@@H]3N(C(=O)c3c(C)cccc3F)C2c2ccc(NC3CCOCC3)cc2)cc1C(F)(F)F (relative stereo) [Compound 88]
IC50: 50 to 500 nM
--
Compound: Cc1ccc(NC(=O)[C@H]2CCCN(S(=O)(=O)c3ccccc3Cl)[C@H]2c2ccc(NC3CCCC3)cc2)cc1C(F)(F)F [Compound 26]
IC50: 2000 to 5000 nM
--
Compound: Cc1ccc(NC(=O)C2C[C@@H]3COC[C@@H]3N(C(=O)c3c(C)cccc3F)C2c2ccc(CN3CCOCC3(C)C)cc2)cc1C(F)(F)F (relative stereo) [Compound 141]
IC50: 50 to 500 nM
--
Compound: Cc1cccc(F)c1C(=O)N1[C@@H]2CCC[C@@H]2C[C@H](C(=O)Nc2ccc(NC=O)c(O)c2)[C@@H]1c1ccc(NC2CCCC2)cc1 (racemic) [Compound 68]
IC50: 2000 to 5000 nM
--
Compound: Cc1cccc(F)c1C(=O)N1[C@@H]2COC[C@@H]2C[C@H](C(=O)Nc2ccc3c(cnn3C)c2)[C@@H]1c1ccc(CN2CCOCC2(C)C)cc1 [Compound 142]
IC50: 2000 to 5000 nM
--
Compound: Cc1ccc(NC(=O)[C@H]2CCCN(S(=O)(=O)c3c(Cl)cccc3Cl)[C@H]2c2ccc(NC3CCCC3)cc2)cc1C(F)(F)F [Compound 20]
IC50: 2000 to 5000 nM
--
Compound: Cc1ccc(NC(=O)[C@H]2C[C@H]3CCC[C@H]3N(C(=O)c3c(C)cccc3F)[C@H]2c2ccc(NC3CCCC3)cc2)cc1C#N (racemic) [Compound 62]
IC50: 50 to 500 nM

Value source: patent US20240043439A1
